Measured pIC50 accompanies every entry in the list below.
System: IGROV-1
Test: Antiproliferative activity against human IGROV1 cells after 72 hrs
Assay type: functional, cell-based
Conditions: IGROV-1, 72 h
pIC50: −log10 of the molar value.
MEASUREMENT_TYPE: pIC50

> print(dat)
                            chemical.smiles  measurement.type  measurement.qualifier  assay.value
1  COc1ccc(-c2ccc(/C=C(\Br)C(=O)O)cc2)cc1C12CC3CC(CC(C3)C1)C2             pIC50                      <         4.70
2  O=C(O)/C(Br)=C\c1ccc(-c2cc3c(c(C45CC6CC(CC(C6)C4)C5)c2)OCO3)cc1             pIC50                      =         4.44
3  COc1cc(-c2ccc(/C=C/C(=O)O)cc2)cc(C23CC4CC(CC(C4)C2)C3)c1O             pIC50                      =         6.28
4  COc1ccc(-c2ccc(C#CC(=O)O)cc2)cc1C12CC3CC(CC(C3)C1)C2             pIC50                      =         5.77
5  CC(=O)NCc1cc(-c2ccc(/C=C/C(=O)O)cc2)cc(C23CC4CC(CC(C4)C2)C3)c1O             pIC50                      =         5.91
